# Tested on: DNA aptamer or structured DNA GGGACGACGGCACGAGGTTATTCGTTGGTTGCACTGCGCTGGGAGGCAGTCGTCCC
# measurement context: 10 mM Tris-HCl, pH 7.4
observable: pKd
Schema: pKd number; meaning minus log10 of the concentration expressed in molar units.

Kindly note the recorded pKd for CN[C@@H](C)Cc1ccccc1 , which is 5.15

###

# Tested on: DNA aptamer or structured DNA GGGACGACGCGTAGGTCTCCTAGCTGTGCGTCGTTCAAGTCGTCCC
# measurement context: 10 mM Tris-HCl, pH 7.4
observable: pKd
Schema: pKd number; meaning minus log10 of the concentration expressed in molar units.

Kindly note the recorded pKd for CC(=O)Oc1ccc2c3c1O[C@H]1[C@@H](OC(C)=O)C=C[C@H]4[C@@H](C2)N(C)CC[C@@]341 , which is 5.36

###

# Test system: DNA aptamer or structured DNA GGGACGACGGTTGGCATTGGGTCGGGTGTGGGTGCGGCGTCGTCCC
# measurement context: 10 mM Tris-HCl, pH 7.4
observable: binding call; also: call rule not given here

Answered examples (5):
- CCNC(C)C(=O)c1ccc2c(c1)OCO2 (centres undefined): binds
- CN(C)CCOC(c1ccccc1)c1ccccc1: binds
- CN[C@@H](C)[C@@H](O)c1ccccc1: no binding
- COc1ccc2c3c1O[C@H]1C(=O)CC[C@@]4(O)[C@@H](C2)N(C)CC[C@]314: no binding
- CCCCCc1cc(O)c2c(c1)OC(C)(C)C1CC=C(C)CC21 (centres undefined): no binding

Noted binding call for CCC(=O)C(CC(C)N(C)C)(c1ccccc1)c1ccccc1 (centres undefined) , tested on DNA aptamer or structured DNA GGGACGACGGTTGGCATTGGGTCGGGTGTGGGTGCGGCGTCGTCCC: binds

Noted binding call for COC(=O)C(c1ccccc1)C1CCCCN1 (centres undefined) , tested on DNA aptamer or structured DNA GGGACGACGGTTGGCATTGGGTCGGGTGTGGGTGCGGCGTCGTCCC: binds

Noted binding call for CCN(CC)CCOC(=O)c1ccc(N)cc1 , tested on DNA aptamer or structured DNA GGGACGACGGTTGGCATTGGGTCGGGTGTGGGTGCGGCGTCGTCCC: binds

###

# System: DNA aptamer or structured DNA GGGACGACCAGGATTCGGTTCTTTGTAAATAGTGCCTCGTTGGTCGTCCC
# measurement context: 10 mM Tris-HCl, pH 7.4
observable: binding call; also: call rule not given here

Answered examples (6):
- CN1CC[C@]23c4c5ccc(O[C@@H]6O[C@H](C(=O)O)[C@@H](O)[C@H](O)[C@H]6O)c4O[C@H]2[C@@H](O)C=C[C@H]3[C@H]1C5: binds
- N[C@@H](Cc1ccc(O)cc1)C(=O)O: no binding
- NCCc1ccc(O)c(O)c1: binds
- NCC(O)c1ccc(O)c(O)c1 (stereo not given): no binding
- CCN(CC)CC(=O)Nc1c(C)cccc1C: no binding
- C=CCN1CC[C@]23c4c5ccc(O)c4O[C@H]2C(=O)CC[C@@]3(O)[C@H]1C5: no binding

Kindly note the recorded binding call for CNC[C@H](O)c1ccc(O)c(O)c1 , which is no binding

Kindly note the recorded binding call for CN1CC[C@]23c4c5ccc(O)c4O[C@H]2[C@@H](O[C@@H]2O[C@H](C(=O)O)[C@@H](O)[C@H](O)[C@H]2O)C=C[C@H]3[C@H]1C5 , which is binds

Kindly note the recorded binding call for CCN(CC)CCOC(=O)c1ccc(N)cc1 , which is no binding
